FYI, the data here is from PubChem BioAssay AID1159580.

Assay: chemical genetic growth profiling, strain panel (AID 1159580);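 further: tested at 20 µM; growth read once vehicle control cultures reached saturation at 30 °C; 1 = growth at the plate median or of vehicle wells; lower values mean less growth of the strain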
Settings: S. cerevisiae deletion strains, growth OD, locus YJR075W, strain HOC1, hits give low values
The campaign covered roughly 5,500 compounds. About 2,000 (36%) were called active. Another 18% or so got no clear call; they are omitted. The list shows a part of the results.
property_label: normalized growth

{"columns": ["molecule", "property_label", "test_value"],
 "data": [
  ["O=c1cc(-c2cc(O)c(O)c(O)c2)oc2cc(O)cc(O)c12", "normalized growth", 1.02],
  ["O=c1cc(-c2ccccc2)oc2c(O)c(O)ccc12", "normalized growth", 1.01],
  ["Cc1cc(=O)oc2c(O)c(O)ccc12", "normalized growth", 1.02],
  ["Cc1ccc(OCc2nnc(SCC(=O)Nc3cccc4c3OCO4)n2-c2ccccc2)c2c1CCC2", "normalized growth", 1.01],
  ["CCCCS(=N)(=O)CCC(N)C(=O)O (configuration not stated)", "normalized growth", 1],
  ["CCCC(CCC)C(=O)O", "normalized growth", 0.982],
  ["NC(N)=O", "normalized growth", 1.02],
  ["O=c1cc(-c2ccc(O)c(O)c2)oc2cc(O)cc(O)c12", "normalized growth", 0.984],
  ["CN1C[C@H](CNC(=O)OCc2ccccc2)C[C@@H]2c3cccc4c3c(cn4C)C[C@H]21", "normalized growth", 0.969],
  ["CC(N)=O", "normalized growth", 0.991],
  ["O=c1[nH]cnc2[nH]ncc12", "normalized growth", 1.01],
  ["O=c1ccn([C@@H]2O[C@H](COP(=O)(O)OP(=O)(O)O)[C@@H](O)[C@H]2O)c(=O)[nH]1", "normalized growth", 0.976]
]}
